# system.tested: GST-tagged PTPN2 protein (Homo sapiens (Human), UniProt P17706)
# Sequence (P17706 whole entry): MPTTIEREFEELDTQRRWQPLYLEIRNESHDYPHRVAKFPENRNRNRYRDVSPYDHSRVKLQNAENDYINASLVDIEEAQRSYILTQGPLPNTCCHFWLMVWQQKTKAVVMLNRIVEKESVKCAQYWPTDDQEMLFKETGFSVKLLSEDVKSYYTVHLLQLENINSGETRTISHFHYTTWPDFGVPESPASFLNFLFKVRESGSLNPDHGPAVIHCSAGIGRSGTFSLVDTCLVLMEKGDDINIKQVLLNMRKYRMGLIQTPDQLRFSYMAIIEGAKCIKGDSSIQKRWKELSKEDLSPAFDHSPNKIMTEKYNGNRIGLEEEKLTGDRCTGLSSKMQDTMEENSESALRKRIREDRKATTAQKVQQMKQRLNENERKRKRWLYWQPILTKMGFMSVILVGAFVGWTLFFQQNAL
pKi: −log10 of the molar value.
quantity.measured: pKi

Worked set:
O=C1CN(c2c(O)cc(Nc3nc(O)c4c(n3)CCCC4)cc2F)S(=O)(=O)N1: > 9.00
CC(C)Cc1c(O)nc(Nc2cc(O)c(N3CC(=O)NS3(=O)=O)c(F)c2)nc1O: 8.30 to 9.00
Cc1cnc(Nc2cc(O)c(N3CC(=O)NS3(=O)=O)c(F)c2)nc1O: > 9.00
Cc1cc(O)nc(Nc2cc(O)c(N3CC(=O)NS3(=O)=O)c(F)c2)n1: 8.30 to 9.00
Cc1ccnc(Nc2cc(O)c(N3CC(=O)NS3(=O)=O)c(F)c2)n1: ≤ 7.00

Response field pKi (GST-tagged PTPN2 protein (Homo sapiens (Human), UniProt P17706)) for item O=C1CN(c2c(O)cc(Nc3nc(O)c4ccccc4n3)cc2F)S(=O)(=O)N1 : > 9.00

Response field pKi (GST-tagged PTPN2 protein (Homo sapiens (Human), UniProt P17706)) for item O=C1CN(c2c(O)cc(NC3=NCCCN3)cc2F)S(=O)(=O)N1 : 8.00 to 8.30
